molecular target: Muscarinic acetylcholine receptor M1 (Homo sapiens); experiment: Displacement of [3H]NMS from human muscarinic M1 receptor expressed in CHO-K1 cells after 1 hr by scintillation counting
Sequence (P11229 whole entry): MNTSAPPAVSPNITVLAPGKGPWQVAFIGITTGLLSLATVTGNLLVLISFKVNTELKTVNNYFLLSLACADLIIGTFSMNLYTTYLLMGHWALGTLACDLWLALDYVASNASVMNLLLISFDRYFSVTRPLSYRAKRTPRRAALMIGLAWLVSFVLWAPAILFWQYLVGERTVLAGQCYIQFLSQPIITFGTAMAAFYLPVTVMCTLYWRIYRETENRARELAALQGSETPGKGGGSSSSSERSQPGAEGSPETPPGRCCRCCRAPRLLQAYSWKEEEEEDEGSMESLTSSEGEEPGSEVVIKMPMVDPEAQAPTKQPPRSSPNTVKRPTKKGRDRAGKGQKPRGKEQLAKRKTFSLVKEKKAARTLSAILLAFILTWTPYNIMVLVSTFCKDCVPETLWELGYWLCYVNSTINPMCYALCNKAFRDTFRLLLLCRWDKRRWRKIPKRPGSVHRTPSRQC
pIC50: −log10 of the molar value.
Some compounds, each annotated with its measured pIC50.

compound | assay-target | pIC50
Cc1cccc(N(Cc2cc(F)c(F)cc2F)C(=O)O[C@H]2C[N+]3(CCOc4ccccc4)CCC2CC3)c1.[Br-] | Muscarinic acetylcholine receptor M1 (Homo sapiens) | 8.62
Cc1cccc(N(Cc2cc(F)c(F)cc2F)C(=O)O[C@H]2CN3CCC2CC3)c1 | Muscarinic acetylcholine receptor M1 (Homo sapiens) | 9.00
O=C(O[C@H]1CN2CCC1CC2)N(Cc1cc(F)c(F)c(F)c1)c1cccc(F)c1 [TARAFENACIN] | Muscarinic acetylcholine receptor M1 (Homo sapiens) | 9.05
CCCCN(C(=O)O[C@H]1C[N+]2(CCc3ccccc3)CCC1CC2)c1ccccc1 | Muscarinic acetylcholine receptor M1 (Homo sapiens) | 7.48
O=C(O[C@H]1C[N+]2(CCOc3ccccc3)CCC1CC2)N(Cc1ccsc1)c1ccccc1.[Br-] | Muscarinic acetylcholine receptor M1 (Homo sapiens) | 9.40
O=C(Nc1ccccc1-c1ccccc1)OC12CCN(CC1)CC2 | Muscarinic acetylcholine receptor M1 (Homo sapiens) | 8.52
CC(C)N(C(=O)O[C@H]1CN2CCC1CC2)c1ccccc1 | Muscarinic acetylcholine receptor M1 (Homo sapiens) | 6.37
Cc1ccc(N(Cc2ccccc2)C(=O)O[C@H]2CN3CCC2CC3)cc1 | Muscarinic acetylcholine receptor M1 (Homo sapiens) | 7.40
O=C(O[C@H]1C[N+]2(CCCc3cccs3)CCC1CC2)N(Cc1cccs1)c1ccccc1.[Br-] | Muscarinic acetylcholine receptor M1 (Homo sapiens) | 8.80
